All figures here come from patent US20260200897A1.

Consider the following compounds and their measured IC50 readings.
target: CDK1/Cyclin B1 (Homo sapiens); test: CDK1/Cyclin B1 TR-FRET biochemical assay, 0.015 mM ATP; details: 0.15 μM Rb (Ser780)-biotin substrate, 120 min reaction, Table 1
Reply numerically in nM, unit not repeated.

Prompt: Requested read-out: IC50. Entry: CC(C)(C)c1cnc(C2CCC(c3cc(Nc4ccc5c(c4F)CNS5(=O)=O)n[nH]3)C2)o1 (single isomer, unassigned) [Example 91b]
Completion: 2570

Prompt: Requested read-out: IC50. Entry: Cc1n[nH]c(C)c1O[C@@H]1CC[C@H](c2cc(Nc3ccc4c(c3F)CNS4(=O)=O)n[nH]2)C1 (relative stereo) [Example 75]
Completion: 1070

Prompt: Requested read-out: IC50. Entry: Cc1ccnn([C@H]2CC[C@@H](c3cc(Nc4ccc5c(c4F)CNS5(=O)=O)n[nH]3)C2)c1=O (relative stereo) [Example 23]
Completion: 526

###

Consider the following molecules and their measured pIC50 readings.
target: CDK1/Cyclin B1 (Homo sapiens); assay: CDK1/Cyclin B1 TR-FRET biochemical assay, 0.015 mM ATP; settings: 0.15 μM Rb (Ser780)-biotin substrate, 120 min reaction, Table 1
Note on units: pIC50 is unitless, being -log10 of a concentration expressed in mol/L.

CC(C)(C)c1n[nH]cc1OC1CCC(c2cc(Nc3ccc4c(c3F)CNS4(=O)=O)n[nH]2)C1 (single isomer, unassigned) [Example 74b] :: 6.17
C=C(C)c1ccncc1O[C@@H]1CC[C@H](c2cc(Nc3ccc4c(c3F)CNS4(=O)=O)n[nH]2)C1 (relative stereo) :: 7.24
CC(C)n1cnnc1O[C@@H]1CC[C@H](c2cc(Nc3ccc4c(c3F)CNS4(=O)=O)n[nH]2)C1 (relative stereo) :: 5.08
O=S1(=O)NCc2c1ccc(Nc1cc([C@H]3CC[C@@H](Oc4nnccc4C4CC4)C3)[nH]n1)c2F (relative stereo) :: 7.46

Prompt: Requested read-out: pIC50. Entry: Cc1cc(O[C@@H]2CC[C@H](c3cc(Nc4ccc5c(c4F)CNS5(=O)=O)n[nH]3)C2)[nH]n1 (relative stereo)
Completion: 5.87

Prompt: Requested read-out: pIC50. Entry: O=S1(=O)NCc2c1ccc(Nc1cc([C@H]3CC[C@@H](Oc4n[nH]c5ccccc45)C3)[nH]n1)c2F (relative stereo)
Completion: 5.67

###

target: CDK1/Cyclin B1 (Homo sapiens, UniProt P06493); assay: CDK1/Cyclin B1 TR-FRET biochemical assay, 0.015 mM ATP; settings: 0.15 μM Rb (Ser780)-biotin substrate, 120 min reaction, Table 1
Sequence (P06493 whole entry): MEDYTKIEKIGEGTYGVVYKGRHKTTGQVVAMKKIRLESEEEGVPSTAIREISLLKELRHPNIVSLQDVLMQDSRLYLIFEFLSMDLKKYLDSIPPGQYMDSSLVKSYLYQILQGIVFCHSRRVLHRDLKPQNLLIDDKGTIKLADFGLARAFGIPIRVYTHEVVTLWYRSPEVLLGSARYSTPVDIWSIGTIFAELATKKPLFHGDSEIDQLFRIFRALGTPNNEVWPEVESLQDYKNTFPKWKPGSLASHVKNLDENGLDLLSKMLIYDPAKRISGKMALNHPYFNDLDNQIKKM
Sequence (P14635 whole entry partner): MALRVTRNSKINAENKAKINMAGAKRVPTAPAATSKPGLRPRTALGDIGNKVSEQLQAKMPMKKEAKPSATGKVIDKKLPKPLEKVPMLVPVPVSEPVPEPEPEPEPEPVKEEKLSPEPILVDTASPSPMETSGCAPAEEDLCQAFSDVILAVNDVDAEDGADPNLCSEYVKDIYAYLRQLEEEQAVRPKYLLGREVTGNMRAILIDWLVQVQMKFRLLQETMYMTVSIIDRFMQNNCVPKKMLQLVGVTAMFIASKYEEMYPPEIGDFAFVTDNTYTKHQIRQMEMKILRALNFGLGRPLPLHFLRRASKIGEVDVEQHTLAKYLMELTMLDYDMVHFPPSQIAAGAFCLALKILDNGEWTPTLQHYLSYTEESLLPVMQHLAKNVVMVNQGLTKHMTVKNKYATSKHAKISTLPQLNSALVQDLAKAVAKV
endpoint_label: pIC50
Note on units: pIC50 is unitless, being -log10 of a concentration expressed in mol/L.

O=S1(=O)NCc2c1ccc(Nc1cc([C@H]3CC[C@@H](Oc4ccccn4)C3)[nH]n1)c2F (relative stereo) [Example 46] :: 5.13

Prompt: Provide value of pIC50 for this record tested with CDK1/Cyclin B1 (Homo sapiens, UniProt P06493): C=C(C)c1csnc1O[C@@H]1CC[C@H](c2cc(Nc3ccc4c(c3F)CNS4(=O)=O)n[nH]2)C1 (relative stereo) [Example 52]
Completion: 6.92

Prompt: Provide value of pIC50 for this record tested with CDK1/Cyclin B1 (Homo sapiens, UniProt P06493): O=S1(=O)NCc2c1ccc(Nc1cc([C@H]3CC[C@@H](Oc4nnccc4C4CCC4)C3)[nH]n1)c2F (relative stereo) [Example 35]
Completion: 7.46
